- Assay Details: qHTS assay to identify small molecule antagonists of the sonic hedgehog signaling (Shh) pathway - cell viability counter screen (AID 1259367); also: nearly all actives have a fitted effect of over 55% in size
- Condition Details: NIH/3T3 Gli1-Luc viability, CellTiter-Fluor, 24 h; series mostly up to 92.4 µM
Results filed as inconclusive are left out. Calls of active or inactive are those of the source. Calls follow the shape of the dose curve; as a rule, active = well fitted cell-killing curve with a large enough effect in the repeat runs; inconclusive = weak or mixed curves, or effect the other way; inactive = no such curve, though single readings can be large or run the other way.
Pick one and only one: 1 = active, -1 = inactive

Consider the following illustrative entries.
CCCCCCCC/C=C\CCCCCCCC(=O)N(CCO)CCO
-1
C=COCCCC
-1
Brc1cc(Br)cc(Br)c1
-1
Nc1ccc2c(S(=O)(=O)O)cccc2c1S(=O)(=O)O
-1
CN1CCN(CCCN2c3ccccc3Sc3ccc(C(F)(F)F)cc32)CC1
-1

Prompt line: Hi, do you know how CCCCCCCCCCCCCCCCCCNC(=O)OC1CCN(C(=O)OC[C@H](COC(=O)N(Cc2cccc[n+]2CC)C(=O)c2ccccc2OC)OC)CC1 came out in this test?
Response line: -1

Prompt line: # fetch the recorded call for CCSCC here
Response line: 1

Prompt line: What classification did Cc1ccc(Cl)c(N)c1Cl end up with in this test?
Response line: 1

Prompt line: Returns: the outcome recorded for CN1CC[C@H](c2c(O)cc(O)c3c(=O)cc(-c4ccccc4Cl)oc23)[C@H](O)C1 in this assay.
Response line: 1

Prompt line: What is the recorded call for this molecule in the test? CCCOC(=O)c1ccc(O)cc1
Response line: -1

Prompt line: Which outcome was assigned to c1ccc2cc3c4ccccc4c4ccccc4c3cc2c1 in this test?
Response line: -1

Prompt line: Hi, sorry to bother you, what did the test record for CCOc1nc(F)cc2nc(S(=O)(=O)Nc3c(Cl)cccc3C(=O)OC)nn12 ?
Response line: -1

Prompt line: In this assay, the call recorded for O=C(Cl)c1ccc(Cl)cc1Cl was what?
Response line: -1

Prompt line: # lookup: test call for O=C1OC(O)C(C(Cl)Cl)=C1Cl (centres undefined)
Response line: 1
